src = paper PMC4872087

Target: T1, His-JMJD2C(874–988) (murine, UniProt Q8VCD7 874-988)
T1 construct: JMJD2C (lysine demethylase), murine, amino acids 874-988, double Tudor domain; Modified pET15b with a minimal, non-cleavable hexahistidine tag; also called JMJD2C-Td; JMJD2C-TD; source: E. coli BL21(DE3) codon plus, purified (Talon resin, gel filtration)
T1 sequence (looked up): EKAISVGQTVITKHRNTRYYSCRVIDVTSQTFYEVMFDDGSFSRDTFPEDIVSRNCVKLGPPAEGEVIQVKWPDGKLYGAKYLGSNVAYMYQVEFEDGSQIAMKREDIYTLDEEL
Test: AlphaScreen or HTRF; AlphaLISA displacement assay with His-JMJD2C(874–988) and biotin-H3(1–23)K4me3 (methods: 300 nM and 25 nM; legend: 5 μM and 200 nM), dilution series of unlabeled H3(1–12)K4me3; beads 0.02 mg/ml
Details: both partners purified
Ends that are not written are not given here. Me3 = trimethyl (trimethylated lysine)
quantity measured: IC50

(Q) If you can, please state the reported IC50 value of ARTK(Me3)QTARKSTG (histone H3, amino acids 1-12; Free N-terminus (H2N-) and free C-terminus (-COOH) as printed; also called unlabeled H3K4me3 peptide; unlabeled H3(1–12)K4me3; source: synthetic peptide, custom synthesized by Peptide Specialty Laboratories GmbH) [H3(1–12)K4me3] .
(A) 4.5 µM
